# Test system: HIV-1NL4-3
# Test description: P4-MAGI assay
# Assay type: cell-based
# Conditions: Human immunodeficiency virus 1, 24 h, P4 cells, 24 hour incubation, β-galactosidase expression; read-out: P4-MAGI IC50
The threshold is 0.02 µM. Values of IC50 beneath it are tagged satisfied; values meeting or exceeding it are tagged not satisfied.

Criterion: IC50 strictly below 0.02 µM. Is it met by C=C(C)[C@@H]1CC[C@]2(C(=O)NCc3cccc(C(=O)NCc4ccc(OCCCn5ccnc5)c(C(=O)OC)c4)c3)CC[C@]3(C)C(CCC4[C@@]5(C)CC[C@H](O)C(C)(C)C5CC[C@]43C)C12 (some centres unmarked) [Example 121] ?
not satisfied

Check C=C(C)[C@@H]1CC[C@]2(C(=O)NCCc3cccc(C(=O)NCC4CCC(C(=O)O)CC4)c3)CC[C@]3(C)C(CCC4[C@@]5(C)CC[C@H](O)C(C)(C)C5CC[C@]43C)C12 (some centres unmarked) [Example 211] too.
satisfied

Also C=C(C)[C@@H]1CC[C@]2(C(=O)NCCc3cccc(C(=O)NCCc4ccc(C(=O)O)cc4F)c3)CC[C@]3(C)C(CCC4[C@@]5(C)CC[C@H](O)C(C)(C)C5CC[C@]43C)C12 (some centres unmarked) [Example 75] ?
not satisfied

Next entry: C=C(C)[C@@H]1CC[C@]2(C(=O)NCCc3cccc(C(=O)NCc4ccc(C(=O)N(C)CCN(C)C)cc4)c3)CC[C@]3(C)C(CCC4[C@@]5(C)CC[C@H](O)C(C)(C)C5CC[C@]43C)C12 (some centres unmarked) [Example 134]
not satisfied

Next compound: C=C(C)[C@@H]1CC[C@]2(C(=O)NCCc3cccc(C(=O)NCCc4ccc(C(=O)O)cc4)c3)CC[C@]3(C)C(CCC4[C@@]5(C)CC[C@H](O)C(C)(C)C5CC[C@]43C)C12 (some centres unmarked) [Example 68]
satisfied

----------
# System: HIV-1NL4-3
# Test description: P4-MAGI assay
# Type: cell-based
# Conditions: Human immunodeficiency virus 1, 24 h, P4 cells, 24 hour incubation, β-galactosidase expression; read-out: P4-MAGI IC50
pIC50: −log10 of the molar value.
Answer not satisfied if pIC50 is under 7, and satisfied if it is 7 or more.

Quick check: does C=C(C)[C@@H]1CC[C@]2(C(=O)NCCc3cccc(C(=O)NCc4ccc(C(=O)NCCN5CCNCC5)cc4)c3)CC[C@]3(C)C(CCC4[C@@]5(C)CC[C@H](O)C(C)(C)C5CC[C@]43C)C12 (stereo partly shown) [Example 192] have pIC50 greater than or equal to 7?
satisfied

Repeat for the following molecule: C=C(C)[C@@H]1CC[C@]2(C(=O)NCCc3cccc(C(=O)NCc4ccc(C(=O)NC(C(=O)O)C(N)C(=O)O)cn4)c3)CC[C@]3(C)C(CCC4[C@@]5(C)CC[C@H](O)C(C)(C)C5CC[C@]43C)C12 (stereo partly shown) [Example 225]
satisfied

Param item: C=C(C)[C@@H]1CC[C@]2(C(=O)NCc3cccc(-c4cccc(C(=O)N[C@@H](CC(C)C)[C@@H](O)CC(=O)O)c4)c3)CC[C@]3(C)C(CCC4[C@@]5(C)CC[C@H](O)C(C)(C)C5CC[C@]43C)C12 (stereo partly shown) [Example 129]
not satisfied

What do we get for C=C(C)[C@@H]1CC[C@]2(C(=O)NCCc3cccc(C(=O)NCc4ccc(C(=O)O)cc4)c3)CC[C@]3(C)C(CCC4[C@@]5(C)CC[C@H](O)C(C)(C)C5CC[C@]43C)C12 (stereo partly shown) [Example 67] ?
satisfied

// next record C=C(C)[C@@H]1CC[C@]2(C(=O)NCCc3cccc(C(=O)NCc4ccc(C(=O)O)s4)c3)CC[C@]3(C)C(CCC4[C@@]5(C)CC[C@H](O)C(C)(C)C5CC[C@]43C)C12 (stereo partly shown) [Example 70]
satisfied

One more molecule: C=C(C)[C@@H]1CC[C@]2(C(=O)NCCc3cccc(C(=O)NCC4(C(=O)O)CC4)c3)CC[C@]3(C)C(CCC4[C@@]5(C)CC[C@H](O)C(C)(C)C5CC[C@]43C)C12 (stereo partly shown) [Example 219]
not satisfied

----------
Provide the reported pIC50 of each item.
# Tested on: HIV-1NL4-3
# Test description: P4-MAGI assay
# Assay type: cell-based
# Conditions: Human immunodeficiency virus 1, 24 h, P4 cells, 24 hour incubation, β-galactosidase expression; read-out: P4-MAGI IC50
The quantity pIC50 is defined as the negative base-10 logarithm of the molar concentration.

Query (molecule): C=C(C)[C@@H]1CC[C@]2(C(=O)NCc3cccc(C(=O)Nc4ccc(O)c(C(=O)O)c4)c3)CC[C@]3(C)C(CCC4[C@@]5(C)CC[C@H](O)C(C)(C)C5CC[C@]43C)C12 (stereo partly shown) ; field requested: pIC50
5.14

Item: C=C(C)[C@@H]1CC[C@]2(C(=O)NCCc3cccc(C(=O)NCc4ccc(C(=O)N[C@H](CO)C(=O)OC)cc4)c3)CC[C@]3(C)C(CCC4[C@@]5(C)CC[C@H](O)C(C)(C)C5CC[C@]43C)C12 (stereo partly shown)
7.89

Another molecule to look at: C=C(C)[C@@H]1CC[C@]2(C(=O)NCc3cc(C(=O)NCCc4cccc(C(=O)OC)c4)ccc3F)CC[C@]3(C)C(CCC4[C@@]5(C)CC[C@H](O)C(C)(C)C5CC[C@]43C)C12 (stereo partly shown)
7.24

Continue with C=C(C)[C@@H]1CC[C@]2(C(=O)NCCc3cccc(C(=O)NCc4ccc(OCCCn5ccnc5)c(C(=O)O)c4)c3)CC[C@]3(C)C(CCC4[C@@]5(C)CC[C@H](O)C(C)(C)C5CC[C@]43C)C12 (stereo partly shown)
7.38

Do the same for C=C(C)[C@@H]1CC[C@]2(C(=O)NCCc3cccc(C(=O)NCc4ccc(C(=O)NCc5ncccc5C(=O)O)cc4)c3)CC[C@]3(C)C(CCC4[C@@]5(C)CC[C@H](O)C(C)(C)C5CC[C@]43C)C12 (stereo partly shown) please
8.22

C=C(C)[C@@H]1CC[C@]2(C(=O)NCCc3cccc(C(=O)NCc4ccc(C(=O)N[C@@H](C(=O)O)[C@@H](C)N5CCOCC5)cc4)c3)CC[C@]3(C)C(CCC4[C@@]5(C)CC[C@H](O)C(C)(C)C5CC[C@]43C)C12 (stereo partly shown) ?
7.14

Also, C=C(C)[C@@H]1CC[C@]2(C(=O)NCCc3cccc(C(=O)NCC4CCC(C(=O)OC)CC4)c3)CC[C@]3(C)C(CCC4[C@@]5(C)CC[C@H](O)C(C)(C)C5CC[C@]43C)C12 (stereo partly shown) please.
7.51

Now the molecule C=C(C)[C@@H]1CC[C@]2(C(=O)NCCc3cccc(C(=O)NCC4COC(C(=O)O)CO4)c3)CC[C@]3(C)C(CCC4[C@@]5(C)CC[C@H](O)C(C)(C)C5CC[C@]43C)C12 (stereo partly shown)
7.27

Okay, and C=C(C)[C@@H]1CC[C@]2(C(=O)NCCc3cccc(C(=O)NCC4OC5OC(C)(C)O[C@@H]5[C@@H](O)[C@@H]4O)c3)CC[C@]3(C)C(CCC4[C@@]5(C)CC[C@H](O)C(C)(C)C5CC[C@]43C)C12 (stereo partly shown) ?
6.70

Please do the same for C=C(C)[C@@H]1CC[C@]2(C(=O)NCCc3cccc(-c4nc5ccc(C(=O)O)cc5[nH]4)c3)CC[C@]3(C)C(CCC4[C@@]5(C)CC[C@H](O)C(C)(C)C5CC[C@]43C)C12 (stereo partly shown) as well.
7.41

One more molecule: C=C(C)[C@@H]1CC[C@]2(C(=O)NCc3cccc(-c4nc(-c5cccc(C(=O)O)c5)no4)c3)CC[C@]3(C)C(CCC4[C@@]5(C)CC[C@H](O)C(C)(C)C5CC[C@]43C)C12 (stereo partly shown)
6.11

Try C=C(C)[C@@H]1CC[C@]2(C(=O)NCCc3cccc(C(=O)NCc4ccccc4)c3)CC[C@]3(C)C(CCC4[C@@]5(C)CC[C@H](O)C(C)(C)C5CC[C@]43C)C12 (stereo partly shown) next.
7.27

Try the molecule C=C(C)[C@@H]1CC[C@]2(C(=O)NCCc3ccc(F)c(C(=O)NCc4ccc(C(=O)OC)cn4)c3)CC[C@]3(C)C(CCC4[C@@]5(C)CC[C@H](O)C(C)(C)C5CC[C@]43C)C12 (stereo partly shown)
7.84

Another molecule to look at: C=C(C)[C@@H]1CC[C@]2(C(=O)NCCc3cccc(C(=O)NCc4ccc(C(=O)O)cc4)c3F)CC[C@]3(C)C(CCC4[C@@]5(C)CC[C@H](O)C(C)(C)C5CC[C@]43C)C12 (stereo partly shown)
7.15

// query: C=C(C)[C@@H]1CC[C@]2(C(=O)NCCc3cccc(S(=O)(=O)NCc4ccc(C(=O)O)cc4)c3)CC[C@]3(C)C(CCC4[C@@]5(C)CC[C@H](O)C(C)(C)C5CC[C@]43C)C12 (stereo partly shown)
7.17

Note, next up: C=C(C)[C@@H]1CC[C@]2(C(=O)NCc3cccc(C(=O)NCCCCC(=O)O)c3)CC[C@]3(C)C(CCC4[C@@]5(C)CCC(=O)C(C)(C)C5CC[C@]43C)C12 (stereo partly shown)
6.80

Follow-up item: C=C(C)[C@@H]1CC[C@]2(C(=O)NCc3cccc(C(=O)O)n3)CC[C@]3(C)C(CCC4[C@@]5(C)CC[C@H](O)C(C)(C)C5CC[C@]43C)C12 (stereo partly shown)
5.44

Now consider C=C(C)[C@@H]1CC[C@]2(C(=O)NCCc3cccc(C(=O)NC(CCC(=O)OC)C(=O)OC)c3)CC[C@]3(C)C(CCC4[C@@]5(C)CC[C@H](O)C(C)(C)C5CC[C@]43C)C12 (stereo partly shown) .
7.44

One more molecule: C=C(C)[C@@H]1CC[C@]2(C(=O)NCCc3cccc(C(=O)NCc4ccc(C(=O)N[C@@H](C(=O)O)C(C)C)cc4)c3)CC[C@]3(C)C(CCC4[C@@]5(C)CC[C@H](O)C(C)(C)C5CC[C@]43C)C12 (stereo partly shown)
7.85
